Test system: KRAS patient-derived spheroids with HUVEC/MSC, viability
Test: Anticancer human tumor 323965-272-R-J2-PDC patient-derived pancreatic carcinoma cell line growth inhibition [KRAS2]
Details: second compound 0.1 µM; first compound 0.316 µM; stronger effect = lower value
Binned viability, T/C; ranges: range A: < 40%; range B: ≥ 40% and < 50%; range C: ≥ 50%

Compound	Group Label
CC1OCC2(CCN(c3cnc(Sc4ccnc(N)c4Cl)c(N)n3)CC2)C1N (stereo not given) + C=CC(=O)N1CCN(c2nc(OCC3CCCN3C)nc3c2CCN(c2cccc4cccc(C)c24)C3)CC1CC#N	range A
CC(C)NCC(C(=O)N1CCN(c2ncnc3c2C(C)CC3O)CC1)c1ccc(Cl)cc1 (stereo not given) + C=CC(=O)N1CCN(c2nc(=O)n(-c3c(C)ccnc3C(C)C)c3nc(-c4c(O)cccc4F)c(F)cc23)C(C)C1	range B
CCN1CCN(Cc2ccc(Nc3ncc(F)c(-c4cc(F)c5nc(C)n(C(C)C)c5c4)n3)nc2)CC1 + C=CC(=O)N1CCN(c2nc(=O)n(-c3c(C)ccnc3C(C)C)c3nc(-c4c(O)cccc4F)c(F)cc23)C(C)C1	range A
CCN1CCN(Cc2ccc(Nc3ncc(F)c(-c4cc(F)c5nc(C)n(C(C)C)c5c4)n3)nc2)CC1 + COc1cc2nc(C)nc(NC(C)c3cc(N)cc(C(F)(F)F)c3)c2cc1OC1CCOC1	range B
CCNC(=O)CC1N=C(c2ccc(Cl)cc2)c2cc(OC)ccc2-n2c(C)nnc21 (stereo not given) + C=CC(=O)N1CCN(c2nc(=O)n(-c3c(C)ccnc3C(C)C)c3nc(-c4c(O)cccc4F)c(F)cc23)C(C)C1	range A
CCN1CCN(Cc2ccc(Nc3ncc(F)c(-c4cc(F)c5nc(C)n(C(C)C)c5c4)n3)nc2)CC1 + C=CC(=O)N1CCN(c2nc(OCC3CCCN3C)nc3c2CCN(c2cccc4cccc(C)c24)C3)CC1CC#N	range A
COc1cc(Nc2ncc3c(n2)-c2ccc(Cl)cc2C(c2c(F)cccc2OC)=NC3)ccc1C(=O)O + CC1OCC2(CCN(c3cnc(Sc4ccnc(N)c4Cl)c(N)n3)CC2)C1N	range A
CCN1CCN(Cc2ccc(Nc3ncc(F)c(-c4cc(F)c5nc(C)n(C(C)C)c5c4)n3)nc2)CC1 + CC1OCC2(CCN(c3cnc(Sc4ccnc(N)c4Cl)c(N)n3)CC2)C1N	range B
CC1(C)CCC(CN2CCN(c3ccc(C(=O)NS(=O)(=O)c4ccc(NCC5CCOCC5)c([N+](=O)[O-])c4)c(Oc4cnc5[nH]ccc5c4)c3)CC2)=C(c2ccc(Cl)cc2)C1 + C=CC(=O)N1CCN(c2nc(OCC3CCCN3C)nc3c2CCN(c2cccc4cccc(C)c24)C3)CC1CC#N	range C
Cn1nccc1Nc1nccc(-c2cc3c(s2)C(C)(C)N(CCN2CCOCC2)C3=O)n1 + CC1OCC2(CCN(c3cnc(Sc4ccnc(N)c4Cl)c(N)n3)CC2)C1N	range C
O=C(c1cc(Cc2n[nH]c(=O)c3ccccc23)ccc1F)N1CCN(C(=O)C2CC2)CC1 + C=CC(=O)N1CCN(c2nc(OCC3CCCN3C)nc3c2CCN(c2cccc4cccc(C)c24)C3)CC1CC#N	range C
CC1(C)CCC(CN2CCN(c3ccc(C(=O)NS(=O)(=O)c4ccc(NCC5CCOCC5)c([N+](=O)[O-])c4)c(Oc4cnc5[nH]ccc5c4)c3)CC2)=C(c2ccc(Cl)cc2)C1 + CC1OCC2(CCN(c3cnc(Sc4ccnc(N)c4Cl)c(N)n3)CC2)C1N	range C
O=C(c1cc(Cc2n[nH]c(=O)c3ccccc23)ccc1F)N1CCN(C(=O)C2CC2)CC1 + CC1OCC2(CCN(c3cnc(Sc4ccnc(N)c4Cl)c(N)n3)CC2)C1N	range C
CC(=O)OC12COC1CC(O)C1(C)C(=O)C(O)C3=C(C)C(OC(=O)C(O)C(NC(=O)OC(C)(C)C)c4ccccc4)CC(O)(C(OC(=O)c4ccccc4)C21)C3(C)C (stereo not given) + C=CC(=O)N1CCN(c2nc(=O)n(-c3c(C)ccnc3C(C)C)c3nc(-c4c(O)cccc4F)c(F)cc23)C(C)C1	range A
COc1cc(Nc2ncc3c(n2)-c2ccc(Cl)cc2C(c2c(F)cccc2OC)=NC3)ccc1C(=O)O + COc1cc2nc(C)nc(NC(C)c3cc(N)cc(C(F)(F)F)c3)c2cc1OC1CCOC1	range A
CC1OCC2(CCN(c3cnc(Sc4ccnc(N)c4Cl)c(N)n3)CC2)C1N (stereo not given) + C=CC(=O)N1CCN(c2nc(=O)n(-c3c(C)ccnc3C(C)C)c3nc(-c4c(O)cccc4F)c(F)cc23)C(C)C1	range A
CC(=O)OC12COC1CC(O)C1(C)C(=O)C(O)C3=C(C)C(OC(=O)C(O)C(NC(=O)OC(C)(C)C)c4ccccc4)CC(O)(C(OC(=O)c4ccccc4)C21)C3(C)C (stereo not given) + COc1cc2nc(C)nc(NC(C)c3cc(N)cc(C(F)(F)F)c3)c2cc1OC1CCOC1	range A
COc1cc2nccc(Oc3ccc(NC(=O)C4(C(=O)Nc5ccc(F)cc5)CC4)cc3)c2cc1OC + C=CC(=O)N1CCN(c2nc(OCC3CCCN3C)nc3c2CCN(c2cccc4cccc(C)c24)C3)CC1CC#N	range C

###

System: KRAS patient-derived spheroids with HUVEC/MSC, viability
Test: Anticancer human tumor 323965-272-R-J2-PDC cell line growth inhibition [KRAS2];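 further: spheroids exposed to agents for 7 days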
Details: curve of first compound; second compound 0.316 µM
Parameter: IC50. Scope: all listed entries.

Compound	Test System	Measure Unit	Rel	IC50
CC(C)n1nc(-c2ccc3oc(N)nc3c2)c2c(N)ncnc21 + C=CC(=O)N1CCN(c2nc(OCC3CCCN3C)nc3c2CCN(c2cccc4cccc(C)c24)C3)CC1CC#N	KRAS patient-derived spheroids with HUVEC/MSC, viability	nM	<	0.316
O=C(c1cc(Cc2n[nH]c(=O)c3ccccc23)ccc1F)N1CCN(C(=O)C2CC2)CC1 + CC1OCC2(CCN(c3cnc(Sc4ccnc(N)c4Cl)c(N)n3)CC2)C1N	KRAS patient-derived spheroids with HUVEC/MSC, viability	nM	>	10000
CCNC(=O)CC1N=C(c2ccc(Cl)cc2)c2cc(OC)ccc2-n2c(C)nnc21 (stereo not given) + C=CC(=O)N1CCN(c2nc(=O)n(-c3c(C)ccnc3C(C)C)c3nc(-c4c(O)cccc4F)c(F)cc23)C(C)C1	KRAS patient-derived spheroids with HUVEC/MSC, viability	nM	=	135
CC(=O)OC12COC1CC(O)C1(C)C(=O)C(O)C3=C(C)C(OC(=O)C(O)C(NC(=O)OC(C)(C)C)c4ccccc4)CC(O)(C(OC(=O)c4ccccc4)C21)C3(C)C (stereo not given) + COc1cc2nc(C)nc(NC(C)c3cc(N)cc(C(F)(F)F)c3)c2cc1OC1CCOC1	KRAS patient-derived spheroids with HUVEC/MSC, viability	nM	<	10
CC1(C)CCC(CN2CCN(c3ccc(C(=O)NS(=O)(=O)c4ccc(NCC5CCOCC5)c([N+](=O)[O-])c4)c(Oc4cnc5[nH]ccc5c4)c3)CC2)=C(c2ccc(Cl)cc2)C1 + CNCc1ccccc1-c1csc(C(C)Nc2nc(C)nc3cc(OC)c(OC)cc23)c1	KRAS patient-derived spheroids with HUVEC/MSC, viability	nM	=	1680

###

Parameter: viability, T/C. Scope: all listed entries.
Tested on: KRAS patient-derived spheroids with HUVEC/MSC, viability
Test: Anticancer human tumor 323965-272-R-J2-PDC cell line growth inhibition [KRAS2];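 further: spheroids exposed to agents for 7 days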;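 on viability, T/C: 100% = DMSO vehicle control viability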
Conditions: second compound 1 µM; first compound 1 µM; stronger effect = lower value
Metric: viability, T/C (%)

Compound	Result Number
COc1cc(Nc2ncc3c(n2)-c2ccc(Cl)cc2C(c2c(F)cccc2OC)=NC3)ccc1C(=O)O + CNCc1ccccc1-c1csc(C(C)Nc2nc(C)nc3cc(OC)c(OC)cc23)c1	37.9
O=C(c1cc(Cc2n[nH]c(=O)c3ccccc23)ccc1F)N1CCN(C(=O)C2CC2)CC1 + CNCc1ccccc1-c1csc(C(C)Nc2nc(C)nc3cc(OC)c(OC)cc23)c1	86.3
CC1(C)CCC(CN2CCN(c3ccc(C(=O)NS(=O)(=O)c4ccc(NCC5CCOCC5)c([N+](=O)[O-])c4)c(Oc4cnc5[nH]ccc5c4)c3)CC2)=C(c2ccc(Cl)cc2)C1 + CNCc1ccccc1-c1csc(C(C)Nc2nc(C)nc3cc(OC)c(OC)cc23)c1	94.8
CC(=O)OC12COC1CC(O)C1(C)C(=O)C(O)C3=C(C)C(OC(=O)C(O)C(NC(=O)OC(C)(C)C)c4ccccc4)CC(O)(C(OC(=O)c4ccccc4)C21)C3(C)C (stereo not given) + C=CC(=O)N1CCN(c2nc(OCC3CCCN3C)nc3c2CCN(c2cccc4cccc(C)c24)C3)CC1CC#N	17.1
CC1OCC2(CCN(c3cnc(Sc4ccnc(N)c4Cl)c(N)n3)CC2)C1N (stereo not given) + CNCc1ccccc1-c1csc(C(C)Nc2nc(C)nc3cc(OC)c(OC)cc23)c1	40.7
COC(=O)c1ccc2c(C(=Nc3ccc(N(C)C(=O)CN4CCN(C)CC4)cc3)c3ccccc3)c(O)[nH]c2c1 + CNCc1ccccc1-c1csc(C(C)Nc2nc(C)nc3cc(OC)c(OC)cc23)c1	79.6
COC(=O)c1ccc2c(C(=Nc3ccc(N(C)C(=O)CN4CCN(C)CC4)cc3)c3ccccc3)c(O)[nH]c2c1 + COc1cc2nc(C)nc(NC(C)c3cc(N)cc(C(F)(F)F)c3)c2cc1OC1CCOC1	74.6
COC(=O)c1ccc2c(C(=Nc3ccc(N(C)C(=O)CN4CCN(C)CC4)cc3)c3ccccc3)c(O)[nH]c2c1 + CC1OCC2(CCN(c3cnc(Sc4ccnc(N)c4Cl)c(N)n3)CC2)C1N	41.6
CC(C)NCC(C(=O)N1CCN(c2ncnc3c2C(C)CC3O)CC1)c1ccc(Cl)cc1 (stereo not given) + CNCc1ccccc1-c1csc(C(C)Nc2nc(C)nc3cc(OC)c(OC)cc23)c1	54.4
Cn1nccc1Nc1nccc(-c2cc3c(s2)C(C)(C)N(CCN2CCOCC2)C3=O)n1 + CC1OCC2(CCN(c3cnc(Sc4ccnc(N)c4Cl)c(N)n3)CC2)C1N	22
CCNC(=O)CC1N=C(c2ccc(Cl)cc2)c2cc(OC)ccc2-n2c(C)nnc21 (stereo not given) + COc1cc2nc(C)nc(NC(C)c3cc(N)cc(C(F)(F)F)c3)c2cc1OC1CCOC1	32
O=C(c1cc(Cc2n[nH]c(=O)c3ccccc23)ccc1F)N1CCN(C(=O)C2CC2)CC1 + C=CC(=O)N1CCN(c2nc(=O)n(-c3c(C)ccnc3C(C)C)c3nc(-c4c(O)cccc4F)c(F)cc23)C(C)C1	61.7
CCNC(=O)CC1N=C(c2ccc(Cl)cc2)c2cc(OC)ccc2-n2c(C)nnc21 (stereo not given) + C=CC(=O)N1CCN(c2nc(OCC3CCCN3C)nc3c2CCN(c2cccc4cccc(C)c24)C3)CC1CC#N	27
Cn1nccc1Nc1nccc(-c2cc3c(s2)C(C)(C)N(CCN2CCOCC2)C3=O)n1 + C=CC(=O)N1CCN(c2nc(=O)n(-c3c(C)ccnc3C(C)C)c3nc(-c4c(O)cccc4F)c(F)cc23)C(C)C1	43.2
CC(=O)OC12COC1CC(O)C1(C)C(=O)C(O)C3=C(C)C(OC(=O)C(O)C(NC(=O)OC(C)(C)C)c4ccccc4)CC(O)(C(OC(=O)c4ccccc4)C21)C3(C)C (stereo not given) + CNCc1ccccc1-c1csc(C(C)Nc2nc(C)nc3cc(OC)c(OC)cc23)c1	32.7
CC(=O)OC12COC1CC(O)C1(C)C(=O)C(O)C3=C(C)C(OC(=O)C(O)C(NC(=O)OC(C)(C)C)c4ccccc4)CC(O)(C(OC(=O)c4ccccc4)C21)C3(C)C (stereo not given) + C=CC(=O)N1CCN(c2nc(=O)n(-c3c(C)ccnc3C(C)C)c3nc(-c4c(O)cccc4F)c(F)cc23)C(C)C1	18.7
COc1cc(Nc2ncc3c(n2)-c2ccc(Cl)cc2C(c2c(F)cccc2OC)=NC3)ccc1C(=O)O + CC1OCC2(CCN(c3cnc(Sc4ccnc(N)c4Cl)c(N)n3)CC2)C1N	26.6
CC(C)NCC(C(=O)N1CCN(c2ncnc3c2C(C)CC3O)CC1)c1ccc(Cl)cc1 (stereo not given) + COc1cc2nc(C)nc(NC(C)c3cc(N)cc(C(F)(F)F)c3)c2cc1OC1CCOC1	30.1
O=C(c1cc(Cc2n[nH]c(=O)c3ccccc23)ccc1F)N1CCN(C(=O)C2CC2)CC1 + COc1cc2nc(C)nc(NC(C)c3cc(N)cc(C(F)(F)F)c3)c2cc1OC1CCOC1	99
CC1COCCN1c1cc(-c2ccnn2C)c2ccnc(-c3ccn[nH]3)c2n1 (stereo not given) + COc1cc2nc(C)nc(NC(C)c3cc(N)cc(C(F)(F)F)c3)c2cc1OC1CCOC1	10
